- Test system: TO-3-N3-2 (biotin conjugate)
- assay.overview: pull-down binding Z-score (relative to library population); higher = stronger binding
- condition.context: RNA library: Library-2
reported.endpoint: pull-down binding Z-score

> print(dat)
                            sequence.content  observed.measurement
 1  CAGGAUUAGUGCUUAUGCUAAGAUGUCUUCACUG [hsa-mir-6773]                -0.269
 2                      UGUGUCAAUAUUUAAACACA              -0.00504
 3  GGCCAGGUUUCAAGGCC [IAV_invivo_PA_3_Motif_22+IAV_invivo_PA_3_Motif_22]                -0.644
 4  GUGUACCUCAUGUGUGUACAC [hsa-mir-5692a-2_5692a-1]                -0.344
 5  GGUAAUUAUACAGUUUCCUGUUUACCUUUUACAAUUAAUUGCC [SHAPE_invitro_SARS-CoV-2_Motif_513]                0.0742
 6     ACGUCUGGCCGCGUGCGCAUGU [hsa-mir-3175]                -0.244
 7  CCGUAUAUAUAUAUAUAUAUAUAUAGAUAUCUCCAUAUAUAUGG [hsa-mir-620]                 -0.53
 8      UAGGAUUUGGGAGUUAUACUA [hsa-mir-5690]               -0.0337
 9  GGUACUUUAUAAUUUCAAAAAGUCCC [hsa-mir-361]                -0.356
10     UAGGUUGUUAUUUAAUCCAACU [hsa-mir-190a]              -0.00409
